# Tested on: Staphylococcus aureus
# Experimental Protocol: Antibacterial activity Staphylococcus aureus ATCC-25923 assessed as growth inhibition after 24 hrs by twofold serial dilution technique
# Assay type: functional
# Particulars: ATCC-25923, 24 h
Each entry below lists one item and its recorded MIC value.
Provide the reading as a plain figure in µM.

Take a look at these entries with their results.
Exercise: Looking for the measured MIC of S=c1n(CN2CCCCC2)nc(Cc2ccccc2Nc2c(Cl)cccc2Cl)n1/N=C/c1ccncc1 , can you help?
Solution: 12.5

Exercise: Looking for the measured MIC of O=C1CSC(c2ccccc2)N1n1c(Cc2ccccc2Nc2c(Cl)cccc2Cl)n[nH]c1=S (stereo not given) , can you help?
Solution: 12.5

Next:
Exercise: Looking for the measured MIC of S=c1n(CN2CCOCC2)nc(Cc2ccccc2Nc2c(Cl)cccc2Cl)n1/N=C/c1ccco1 , can you help?
Solution: 12.5

Exercise: Looking for the measured MIC of COc1ccc(C2SCC(=O)N2n2c(Cc3ccccc3Nc3c(Cl)cccc3Cl)n[nH]c2=S)cc1 (stereo not given) , can you help?
Solution: 12.5

Exercise: Looking for the measured MIC of S=c1n(CN2CCOCC2)nc(Cc2ccccc2Nc2c(Cl)cccc2Cl)n1/N=C/c1ccccc1 , can you help?
Solution: 6.25

---

# System: Escherichia coli
# Experimental Protocol: Antibacterial activity Escherichia coli ATCC-25922 assessed as growth inhibition after 24 hrs by twofold serial dilution technique
# Type: functional
# Particulars: ATCC-25922, 24 h
Quantity Kind: MIC (µM)
Provide the reading as a plain figure in µM.

Take a look at these entries with their results.
Exercise: Looking for the measured MIC of COc1ccc(/C=N/n2c(Cc3ccccc3Nc3c(Cl)cccc3Cl)nn(CN3CCCCC3)c2=S)cc1 , can you help?
Solution: 6.25

Exercise: Looking for the measured MIC of S=c1n(CN2CCOCC2)nc(Cc2ccccc2Nc2c(Cl)cccc2Cl)n1/N=C/c1cccs1 , can you help?
Solution: 6.25

Exercise: Looking for the measured MIC of S=c1n(CN2CCOCC2)nc(Cc2ccccc2Nc2c(Cl)cccc2Cl)n1/N=C/c1ccccc1 , can you help?
Solution: 12.5

Exercise: Looking for the measured MIC of O=C1CSC(c2ccco2)N1n1c(Cc2ccccc2Nc2c(Cl)cccc2Cl)n[nH]c1=S (stereo not given) , can you help?
Solution: 12.5

Exercise: Looking for the measured MIC of S=c1n(CN2CCCCC2)nc(Cc2ccccc2Nc2c(Cl)cccc2Cl)n1/N=C/c1ccco1 , can you help?
Solution: 12.5

Exercise: Looking for the measured MIC of COc1ccc(/C=N/n2c(Cc3ccccc3Nc3c(Cl)cccc3Cl)nn(CN3CCOCC3)c2=S)cc1 , can you help?
Solution: 6.25

Exercise: Looking for the measured MIC of COc1ccc(/C=N/n2c(Cc3ccccc3Nc3c(Cl)cccc3Cl)nn3c(=O)c4ccccc4nc23)cc1OC , can you help?
Solution: 25

Exercise: Looking for the measured MIC of S=c1n(CN2CCOCC2)nc(Cc2ccccc2Nc2c(Cl)cccc2Cl)n1/N=C/c1ccco1 , can you help?
Solution: 12.5

# next molecule below
Exercise: Looking for the measured MIC of S=c1n(CN2CCCCC2)nc(Cc2ccccc2Nc2c(Cl)cccc2Cl)n1/N=C/c1cccs1 , can you help?
Solution: 12.5

---

Each entry below lists one item and its recorded MIC value.
# System: Escherichia coli
# Experimental Protocol: Antibacterial activity Escherichia coli ATCC-25922 assessed as growth inhibition after 24 hrs by twofold serial dilution technique
# Format: functional
# Particulars: ATCC-25922, 24 h
Provide the reading as a plain figure in µM.

Take a look at these entries with their results.
Exercise: Looking for the measured MIC of COc1ccc(/C=N/n2c(Cc3ccccc3Nc3c(Cl)cccc3Cl)nn(CN3CCOCC3)c2=S)cc1OC , can you help?
Solution: 6.25

Exercise: Looking for the measured MIC of O=c1c2ccccc2nc2n(/N=C/c3ccccc3)c(Cc3ccccc3Nc3c(Cl)cccc3Cl)nn12 , can you help?
Solution: 12.5

Exercise: Looking for the measured MIC of O=C1CSC(c2cccs2)N1n1c(Cc2ccccc2Nc2c(Cl)cccc2Cl)n[nH]c1=S (configuration not stated) , can you help?
Solution: 12.5

Next:
Exercise: Looking for the measured MIC of O=C1CSC(c2ccncc2)N1n1c(Cc2ccccc2Nc2c(Cl)cccc2Cl)n[nH]c1=S (configuration not stated) , can you help?
Solution: 50

Exercise: Looking for the measured MIC of O=C1CSC(c2ccccc2)N1n1c(Cc2ccccc2Nc2c(Cl)cccc2Cl)n[nH]c1=S (configuration not stated) , can you help?
Solution: 12.5

Exercise: Looking for the measured MIC of S=c1n(CN2CCCCC2)nc(Cc2ccccc2Nc2c(Cl)cccc2Cl)n1/N=C/c1ccncc1 , can you help?
Solution: 25

Exercise: Looking for the measured MIC of O=c1c2ccccc2nc2n(/N=C/c3cccs3)c(Cc3ccccc3Nc3c(Cl)cccc3Cl)nn12 , can you help?
Solution: 12.5
